Origin of the recorded values: ChEMBL document CHEMBL5104166

tgt: Cathepsin K (Homo sapiens, UniProt P43235)
Sequence (P43235 whole entry): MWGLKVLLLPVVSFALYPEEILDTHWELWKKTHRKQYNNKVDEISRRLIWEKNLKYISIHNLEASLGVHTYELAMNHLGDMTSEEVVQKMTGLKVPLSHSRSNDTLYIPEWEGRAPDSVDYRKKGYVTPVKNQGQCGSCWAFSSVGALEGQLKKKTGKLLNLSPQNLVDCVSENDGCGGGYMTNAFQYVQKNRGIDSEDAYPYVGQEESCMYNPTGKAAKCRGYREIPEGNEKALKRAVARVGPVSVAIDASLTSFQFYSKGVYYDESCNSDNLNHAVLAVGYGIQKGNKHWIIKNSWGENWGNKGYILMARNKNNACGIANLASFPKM
protocol summary: Inhibition of human Cathepsin K
quantity measured: IC50 (nM)
One number for each entry, in nM.

smiles entry | tgt | unit descriptor | IC50
CS(=O)(=O)c1ccc(-c2cn(CC(F)(F)F)nc2[C@@H]2CCC(Cl)(Cl)C[C@H]2C(=O)NC2(C#N)CC2)cc1 | Cathepsin K (Homo sapiens, UniProt P43235) | nM | 1.8

For the 3 compounds below, give their IC50 values.
1. N#CC1(NC(=O)[C@@H]2CC(F)(F)CC[C@H]2c2nn(CC(F)(F)F)cc2-c2ccc(N3CCS(=O)(=O)CC3)cc2)CC1
2. COc1cccc(-n2cc(-c3ccc(N4CCS(=O)(=O)CC4)cc3)c([C@@H]3CCCC[C@H]3C(=O)NC3(C#N)CC3)n2)c1
3. N#CC1(NC(=O)[C@@H]2CCCC[C@H]2c2nc(-c3ccc(F)cc3)sc2-c2ccc(N3CCS(=O)(=O)CC3)cc2)CC1

Result:
1. 0.7
2. 0.7
3. 0.6
